Provenance of the data: patent US10981926B2

SYSTEM: wild-type Androgen Receptor (AR-wt) (Homo sapiens (Human), UniProt P10275)
Sequence (P10275 whole entry): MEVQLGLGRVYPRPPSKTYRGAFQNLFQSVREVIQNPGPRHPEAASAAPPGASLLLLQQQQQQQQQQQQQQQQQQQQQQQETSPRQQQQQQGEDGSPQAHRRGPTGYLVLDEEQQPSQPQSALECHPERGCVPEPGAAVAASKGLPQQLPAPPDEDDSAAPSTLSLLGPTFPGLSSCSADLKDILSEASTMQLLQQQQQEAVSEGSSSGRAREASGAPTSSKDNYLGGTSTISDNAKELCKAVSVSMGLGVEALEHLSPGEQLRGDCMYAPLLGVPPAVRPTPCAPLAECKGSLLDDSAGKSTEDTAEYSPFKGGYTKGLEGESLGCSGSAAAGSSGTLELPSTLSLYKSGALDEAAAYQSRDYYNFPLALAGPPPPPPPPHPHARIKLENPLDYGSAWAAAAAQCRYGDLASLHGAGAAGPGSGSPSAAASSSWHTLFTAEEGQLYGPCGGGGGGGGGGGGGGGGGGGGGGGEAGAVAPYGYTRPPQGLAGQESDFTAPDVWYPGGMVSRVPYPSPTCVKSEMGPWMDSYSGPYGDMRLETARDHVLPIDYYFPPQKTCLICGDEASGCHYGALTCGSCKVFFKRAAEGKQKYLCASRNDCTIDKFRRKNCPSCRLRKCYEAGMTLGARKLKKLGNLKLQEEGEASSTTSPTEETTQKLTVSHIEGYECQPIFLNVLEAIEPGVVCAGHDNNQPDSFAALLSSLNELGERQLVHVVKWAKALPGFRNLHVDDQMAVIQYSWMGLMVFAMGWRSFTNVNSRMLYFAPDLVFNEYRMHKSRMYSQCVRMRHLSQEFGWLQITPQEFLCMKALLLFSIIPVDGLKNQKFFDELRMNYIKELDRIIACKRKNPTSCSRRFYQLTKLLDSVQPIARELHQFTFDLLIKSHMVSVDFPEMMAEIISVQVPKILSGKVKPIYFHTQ
ASSAY COMMENT: LNCaP-AR-wt AG reporter assay (agonist mode)
Assay type: cell-based
REPORTED CONDITIONS: maximum % stimulation (agonist response) over the tested concentration range; read-out: LNCaP-AR-wt AG MAX % Stim
OBSERVATION TYPE: Emax (%)
The reply should be a number in %, with the unit left off.

Record `COCCn1ncc2cc(N3C(=S)N(c4cnc(C#N)c(C(F)(F)F)c4)C(=O)C34CCC4)ccc21` / wild-type Androgen Receptor (AR-wt) (Homo sapiens (Human), UniProt P10275), Emax recorded as 0.2

Record `N#Cc1ncc(N2C(=O)C3(CCC3)N(c3ccc(OC4CCNCC4)cc3)C2=S)cc1Cl` / wild-type Androgen Receptor (AR-wt) (Homo sapiens (Human), UniProt P10275), Emax recorded as 0.7

Record `CN1CCC(C)(Oc2ccc(N3C(=S)N(c4cnc(C#N)c(C(F)(F)F)c4)C(=O)C34CCC4)cc2)CC1` / wild-type Androgen Receptor (AR-wt) (Homo sapiens (Human), UniProt P10275), Emax recorded as -0.2

Record `C=CCN1CCC(Oc2ccc(N3C(=S)N(c4cnc(C#N)c(Cl)c4)C(=O)C34CCC4)cn2)CC1` / wild-type Androgen Receptor (AR-wt) (Homo sapiens (Human), UniProt P10275), Emax recorded as 0.2

Record `COCCn1ncc2ccc(N3C(=S)N(c4cnc(C#N)c(C(F)(F)F)c4)C(=O)C34CCC4)cc21` / wild-type Androgen Receptor (AR-wt) (Homo sapiens (Human), UniProt P10275), Emax recorded as 0.1

Record `CCOC(=O)N1CCN(C(=O)c2ccc(N3C(=S)N(c4cnc(C#N)c(C(F)(F)F)c4)C(=O)C34CCC4)cc2)CC1` / wild-type Androgen Receptor (AR-wt) (Homo sapiens (Human), UniProt P10275), Emax recorded as 0.3

Record N#Cc1ncc(N2C(=O)C3(CCC3)N(c3ccc(OC4CCNCC4(F)F)cc3)C2=S)cc1C(F)(F)F (racemic) / wild-type Androgen Receptor (AR-wt) (Homo sapiens (Human), UniProt P10275), Emax recorded as -0.1

Record CN1C2CCC1CC(c1ccc(N3C(=S)N(c4cnc(C#N)c(C(F)(F)F)c4)C(=O)C34CCC4)cc1)C2 (stereo not drawn) / wild-type Androgen Receptor (AR-wt) (Homo sapiens (Human), UniProt P10275), Emax recorded as -0.1

Record `COCCN1CCC(Oc2ccc(N3C(=S)N(c4cnc(C#N)c(C(F)(F)F)c4)C(=O)C34CCC4)cc2)CC1` / wild-type Androgen Receptor (AR-wt) (Homo sapiens (Human), UniProt P10275), Emax recorded as 0

Record `Cc1cc(N2C(=O)C3(CCC3)N(c3ccc(OC4CCN(C5CC5)CC4)cc3)C2=S)cnc1C#N` / wild-type Androgen Receptor (AR-wt) (Homo sapiens (Human), UniProt P10275), Emax recorded as 0.2

Record `N#Cc1ncc(N2C(=O)C3(CCC3)N(c3ccc(OCCN4CCC5(CCOC5)CC4)cc3)C2=S)cc1C(F)(F)F` / wild-type Androgen Receptor (AR-wt) (Homo sapiens (Human), UniProt P10275), Emax recorded as 0.4

Record `CNC(=O)Cc1ccc(N2C(=S)N(c3cnc(C#N)c(C)c3)C(=O)C23CCC3)cc1` / wild-type Androgen Receptor (AR-wt) (Homo sapiens (Human), UniProt P10275), Emax recorded as 0.4

Record `CN1CCC(Oc2ncc(N3C(=S)N(c4cnc(C#N)c(C(F)(F)F)c4)C(=O)C34CCC4)cn2)CC1` / wild-type Androgen Receptor (AR-wt) (Homo sapiens (Human), UniProt P10275), Emax recorded as 0.2

Record `CC(C)(C)CCN1CCC(Oc2ccc(N3C(=S)N(c4cnc(C#N)c(C(F)(F)F)c4)C(=O)C34CCC4)cc2)CC1` / wild-type Androgen Receptor (AR-wt) (Homo sapiens (Human), UniProt P10275), Emax recorded as -0.4

Record `CN1CC2(CC(Oc3ccc(N4C(=S)N(c5cnc(C#N)c(C(F)(F)F)c5)C(=O)C45CCC5)cc3)C2)C1` / wild-type Androgen Receptor (AR-wt) (Homo sapiens (Human), UniProt P10275), Emax recorded as 0

Record N#Cc1ncc(N2C(=O)C3(CCC3)N(c3ccc(OCC4CC(F)(F)CN4)cc3)C2=S)cc1C(F)(F)F (stereo not drawn) / wild-type Androgen Receptor (AR-wt) (Homo sapiens (Human), UniProt P10275), Emax recorded as 1.3

Record `COc1cc(N2C(=O)C3(CCC3)N(c3ccc(OC4CCNCC4)cc3)C2=S)cnc1C#N` / wild-type Androgen Receptor (AR-wt) (Homo sapiens (Human), UniProt P10275), Emax recorded as -0.1

Record N#Cc1ncc(N2C(=O)C3(CCC3)N(c3ccc(OC4CCN5CCCC5C4)cc3)C2=S)cc1C(F)(F)F (stereo not drawn) / wild-type Androgen Receptor (AR-wt) (Homo sapiens (Human), UniProt P10275), Emax recorded as 1

Record `N#Cc1ncc(N2C(=O)C3(CCC3)N(c3ccc(OCCN4CC5(COC5)C4)cc3)C2=S)cc1C(F)(F)F` / wild-type Androgen Receptor (AR-wt) (Homo sapiens (Human), UniProt P10275), Emax recorded as 0.1

Record CN1CCC(Oc2ccc(N3C(=S)N(c4cnc(C#N)c(C(F)(F)F)c4)C(=O)C34CCC4)cc2)C(F)(F)C1 (racemic) / wild-type Androgen Receptor (AR-wt) (Homo sapiens (Human), UniProt P10275), Emax recorded as 0.3

Record `CN1CCC(Oc2ccc(N3C(=S)N(c4cnc(C#N)c(C(F)(F)F)c4)C(=O)C34CCC4)cn2)CC1` / wild-type Androgen Receptor (AR-wt) (Homo sapiens (Human), UniProt P10275), Emax recorded as -0.1

Record `N#Cc1ncc(N2C(=O)C3(CCC3)N(c3ccc4c(cnn4CCO)c3)C2=S)cc1Cl` / wild-type Androgen Receptor (AR-wt) (Homo sapiens (Human), UniProt P10275), Emax recorded as 0.4

Record `Cc1cc(N2C(=O)C3(CCC3)N(c3ccc(OC4CCN(C)CC4)nc3)C2=S)cnc1C#N` / wild-type Androgen Receptor (AR-wt) (Homo sapiens (Human), UniProt P10275), Emax recorded as 0.5

Record CC(C)(C)OC(=O)N1C2CCC1CC(c1ccc(N3C(=S)N(c4cnc(C#N)c(C(F)(F)F)c4)C(=O)C34CCC4)cc1)C2 (stereo not drawn) / wild-type Androgen Receptor (AR-wt) (Homo sapiens (Human), UniProt P10275), Emax recorded as 0.3

Record `Cn1cc2cc(N3C(=S)N(c4cnc(C#N)c(C(F)(F)F)c4)C(=O)C34CCC4)ccc2n1` / wild-type Androgen Receptor (AR-wt) (Homo sapiens (Human), UniProt P10275), Emax recorded as 0

Record `COCCn1cc2cc(N3C(=S)N(c4cnc(C#N)c(OC)c4)C(=O)C34CCC4)ccc2n1` / wild-type Androgen Receptor (AR-wt) (Homo sapiens (Human), UniProt P10275), Emax recorded as 0.1

Record `N#CCN1CCC(Oc2ccc(N3C(=S)N(c4cnc(C#N)c(C(F)(F)F)c4)C(=O)C34CCC4)cc2)CC1` / wild-type Androgen Receptor (AR-wt) (Homo sapiens (Human), UniProt P10275), Emax recorded as 0.9

Record `CN1CCC(Oc2ccc(N3C(=S)N(c4cnc(C#N)c(C(F)F)c4)C(=O)C34CCC4)cc2)CC1` / wild-type Androgen Receptor (AR-wt) (Homo sapiens (Human), UniProt P10275), Emax recorded as 0.1

Record `COCCN1CCC(Oc2ccc(N3C(=S)N(c4cnc(C#N)c(C)c4)C(=O)C34CCC4)cc2)CC1` / wild-type Androgen Receptor (AR-wt) (Homo sapiens (Human), UniProt P10275), Emax recorded as 0.1

Record `N#Cc1ncc(N2C(=O)C3(CCC3)N(c3ccc(OC4CCN(CC(F)(F)F)CC4)nc3)C2=S)cc1C(F)(F)F` / wild-type Androgen Receptor (AR-wt) (Homo sapiens (Human), UniProt P10275), Emax recorded as 0.5

====

SYSTEM: F876L mutant Androgen Receptor (AR-F876L) (Homo sapiens (Human), UniProt P10275, F877L)
Sequence (P10275 whole entry F877L): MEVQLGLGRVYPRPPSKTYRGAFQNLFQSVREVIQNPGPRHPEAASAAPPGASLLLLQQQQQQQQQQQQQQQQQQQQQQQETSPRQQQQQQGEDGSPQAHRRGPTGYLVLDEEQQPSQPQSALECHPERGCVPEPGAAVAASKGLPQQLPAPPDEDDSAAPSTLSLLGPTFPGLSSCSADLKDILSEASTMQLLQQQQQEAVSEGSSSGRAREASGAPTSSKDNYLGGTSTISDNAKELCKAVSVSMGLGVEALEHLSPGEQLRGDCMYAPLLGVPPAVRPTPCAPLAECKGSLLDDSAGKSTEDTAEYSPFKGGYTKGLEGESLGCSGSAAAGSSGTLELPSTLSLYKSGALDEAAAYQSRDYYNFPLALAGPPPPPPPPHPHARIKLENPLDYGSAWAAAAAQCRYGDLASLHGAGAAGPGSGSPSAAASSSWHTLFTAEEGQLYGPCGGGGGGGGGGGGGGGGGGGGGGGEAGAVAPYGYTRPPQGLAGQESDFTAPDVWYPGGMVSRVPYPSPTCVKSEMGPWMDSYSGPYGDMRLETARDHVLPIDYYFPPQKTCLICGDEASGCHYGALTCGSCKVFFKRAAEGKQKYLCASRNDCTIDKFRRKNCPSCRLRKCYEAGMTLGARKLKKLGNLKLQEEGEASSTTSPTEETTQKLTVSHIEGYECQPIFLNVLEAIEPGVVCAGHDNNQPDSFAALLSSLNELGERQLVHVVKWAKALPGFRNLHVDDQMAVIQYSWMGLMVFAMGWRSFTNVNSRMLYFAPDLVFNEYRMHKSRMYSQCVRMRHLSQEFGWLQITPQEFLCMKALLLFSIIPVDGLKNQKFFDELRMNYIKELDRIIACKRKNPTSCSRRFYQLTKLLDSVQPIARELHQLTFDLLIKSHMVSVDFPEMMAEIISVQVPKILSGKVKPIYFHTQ
ASSAY COMMENT: LNCaP-AR-F876L ANT reporter assay (antagonist mode)
Type: cell-based
REPORTED CONDITIONS: antagonist mode; pIC50 = −Log10(IC50 in Molar); read-out: LNCaP-AR-F876L ANT pIC50 (converted)
Criterion: IC50 strictly under 200 nM. Met: T. Not met: F.

Does this compound meet the criterion IC50 < 200 nM? `N#Cc1ncc(N2C(=O)C3(CCC3)N(c3ccc(CN4CCC(N)CC4)cc3)C2=S)cc1C(F)(F)F` F

Does this compound meet the criterion IC50 < 200 nM? `CNC(=O)N1CCC(CNC(=O)c2ccc(N3C(=S)N(c4cnc(C#N)c(C(F)(F)F)c4)C(=O)C34CCC4)cc2)CC1` F

Does this compound meet the criterion IC50 < 200 nM? `N#Cc1ncc(N2C(=O)C3(CCC3)N(c3ccc4ccn(CCO)c4c3)C2=S)cc1C(F)(F)F` F

Does this compound meet the criterion IC50 < 200 nM? `N#Cc1ncc(N2C(=O)C3(CCC3)N(c3ccc(CN4CCNCC4)cc3)C2=S)cc1Cl` F

Does this compound meet the criterion IC50 < 200 nM? `CN1CCC(C)(Oc2ccc(N3C(=S)N(c4cnc(C#N)c(C(F)(F)F)c4)C(=O)C34CCC4)cn2)CC1` F

Does this compound meet the criterion IC50 < 200 nM? N#Cc1ncc(N2C(=O)C3(CCC3)N(c3ccc(OCC4CC(F)(F)CN4)cc3)C2=S)cc1C(F)(F)F (centres unmarked) T

Does this compound meet the criterion IC50 < 200 nM? `CN1CCC(Cn2ncc3cc(N4C(=S)N(c5cnc(C#N)c(C(F)(F)F)c5)C(=O)C45CCC5)ccc32)CC1` T

Does this compound meet the criterion IC50 < 200 nM? `N#Cc1ncc(N2C(=O)C3(CCC3)N(c3ccc(CN4CCN(CCO)CC4)cc3)C2=S)cc1C(F)(F)F` F

Does this compound meet the criterion IC50 < 200 nM? `COCCN1CCC(Oc2ccc(N3C(=S)N(c4cnc(C#N)c(Cl)c4)C(=O)C34CCC4)cn2)CC1` T

Does this compound meet the criterion IC50 < 200 nM? CN1CC2CC1CC2Oc1ccc(N2C(=S)N(c3cnc(C#N)c(C(F)(F)F)c3)C(=O)C23CCC3)cn1 (centres unmarked) F

Does this compound meet the criterion IC50 < 200 nM? `COc1cc(N2C(=O)C3(CCC3)N(c3ccc4c(cnn4C4CCN(CCO)CC4)c3)C2=S)cnc1C#N` F

Does this compound meet the criterion IC50 < 200 nM? N#Cc1ncc(N2C(=O)C3(CCC3)N(c3ccc(CC4CCC(N)CC4)cc3)C2=S)cc1C(F)(F)F (centres unmarked) T

Does this compound meet the criterion IC50 < 200 nM? `CN1CCC[C@H](CNC(=O)c2ccc(N3C(=S)N(c4cnc(C#N)c(C(F)(F)F)c4)C(=O)C34CCC4)cc2)C1` F

Does this compound meet the criterion IC50 < 200 nM? CN1CCC(Oc2ccc(N3C(=S)N(c4cnc(C#N)c(C(F)(F)F)c4)C(=O)C34CCC4)cc2)CC1=O (racemic) T

Does this compound meet the criterion IC50 < 200 nM? `N#Cc1ncc(N2C(=O)C3(CCC3)N(c3ccc4c(cnn4CC4CCNCC4)c3)C2=S)cc1C(F)(F)F` F

Does this compound meet the criterion IC50 < 200 nM? `CN1CCC[C@H](CNC(=O)c2ccc(N3C(=S)N(c4cnc(C#N)c(C(F)(F)F)c4)C(=O)C34CCC4)cc2F)C1` F

Does this compound meet the criterion IC50 < 200 nM? `CC(C)(C)OC(=O)N1CCC(CNC(=O)c2ccc(N3C(=S)N(c4cnc(C#N)c(C(F)(F)F)c4)C(=O)C34CCC4)cc2)CC1` T

Does this compound meet the criterion IC50 < 200 nM? `COc1ccc(N2C(=S)N(c3cnc(C#N)c(C(F)(F)F)c3)C(=O)C23CCC3)cn1` T

Does this compound meet the criterion IC50 < 200 nM? `N#Cc1ncc(N2C(=O)C3(CCC3)N(c3ccc4c(cnn4CCO)c3)C2=S)cc1C(F)(F)F` F

Does this compound meet the criterion IC50 < 200 nM? `Cc1cc(N2C(=O)C3(CCC3)N(c3ccc(OC4CCN(CC(F)(F)F)CC4)nc3)C2=S)cnc1C#N` T

Does this compound meet the criterion IC50 < 200 nM? `CN1CC(CNC(=O)c2ccc(N3C(=S)N(c4cnc(C#N)c(C(F)(F)F)c4)C(=O)C34CCC4)cc2)C1` F

Does this compound meet the criterion IC50 < 200 nM? `N#Cc1ncc(N2C(=O)C3(CCC3)N(c3ccc(OC4CC5(CNC5)C4)cc3)C2=S)cc1C(F)(F)F` T

Does this compound meet the criterion IC50 < 200 nM? `COCc1ccc(-c2ccc(N3C(=S)N(c4cnc(C#N)c(C)c4)C(=O)C34CCC4)cc2)o1` T

Does this compound meet the criterion IC50 < 200 nM? `COc1cc(N2C(=O)C3(CCC3)N(c3ccc4nn(C5CCNCC5)cc4c3)C2=S)cnc1C#N` F

Does this compound meet the criterion IC50 < 200 nM? `CN1CC[C@@H](CNC(=O)c2ccc(N3C(=S)N(c4cnc(C#N)c(C(F)(F)F)c4)C(=O)C34CCC4)cc2F)C1` F

Does this compound meet the criterion IC50 < 200 nM? N#Cc1ncc(N2C(=O)C3(CCC3)N(c3ccc(O[C@H]4CCN[C@H](CO)C4)cc3)C2=S)cc1C(F)(F)F (racemic) T

Does this compound meet the criterion IC50 < 200 nM? `C=CCN1CCC(Oc2ccc(N3C(=S)N(c4cnc(C#N)c(Cl)c4)C(=O)C34CCC4)cn2)CC1` T

Does this compound meet the criterion IC50 < 200 nM? `CN1CC2(CC(Oc3ccc(N4C(=S)N(c5cnc(C#N)c(C(F)(F)F)c5)C(=O)C45CCC5)cc3)C2)C1` T

Does this compound meet the criterion IC50 < 200 nM? `N#Cc1ncc(N2C(=O)C3(CCC3)N(c3ccc(OCCN4CC5(COC5)C4)cc3)C2=S)cc1C(F)(F)F` T
